Assay type: in vivo, human
CONDITION_PARAMETERS: human, plasma, oral, 50 mg, Opicapone t1/2, mean ± SD, day 14
READOUT_NAME: half-life

Cc1c(Cl)c(C)[n+]([O-])c(Cl)c1-c1noc(-c2cc(O)c(O)c([N+](=O)[O-])c2)n1    1.9 h

----------
Assay type: in vivo, human
CONDITION_PARAMETERS: human, plasma, oral, 50 mg, Opicapone t1/2, mean ± SD, day 1
READOUT_NAME: half-life (min)

Cc1c(Cl)c(C)[n+]([O-])c(Cl)c1-c1noc(-c2cc(O)c(O)c([N+](=O)[O-])c2)n1    72

The measured values listed here are drawn from paper PMC10010692.
